Tested on: ERBB3
stated_conditions: concentration: 1 μM, replicates: in singlicate; n = 1;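 note: KINOMEscan kinase panel screen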
Assign %Inh to each entry below.
Report the figure in % without appending any unit label.

# query: %Inh of entry CSc1cccc2c(-c3ccncn3)c(-c3ccc(F)cc3)nn12 [GW514786] 13

Try CCc1ccc(-c2ccc3c(c2)-c2c(cnn2C)S(=O)(=O)N3C)cc1 next. 0

Also COc1ccc(Nc2nccc(NCCNC(=O)c3cc4ccccc4s3)n2)cc1 [GSK1379896] , if possible. 0

Now the molecule O=C(Nc1cccc(-c2nn3ccccc3c2-c2ccnc(Nc3cccc(C(F)(F)F)c3)n2)c1)c1c(F)cccc1F [GSK292658] 0

Okay, and Nc1ncc(-c2cccnc2)c2scc(-c3ccc4c(c3)CCN4C(=O)Cc3ccccc3)c12 [GSK683281] ? 0

Also COc1cccc(NC(=O)NC2CCN(c3ccnc(Nc4cc(OC)c(OC)c(OC)c4)n3)C2)c1 (stereo not drawn) [GSK1379763] , if possible. 0

Thanks! And Nc1n[nH]c2cnc(-c3ccccc3)cc12 [SB-642124] ? 0

Continue with Nc1ncnc2c1nc(-c1ccccc1)n2-c1ccccc1 [SKF-97293] 43

Query CC(C)(C)c1ccc2nccc(Nc3cccc(O)c3)c2c1 [GW856795] next 44

# repeat for COc1cccc(C(=O)Nc2cccc(Oc3ccc4nc(NC(=O)C5CC5)cn4n3)c2)c1 10

Also need CN(c1ccc(NC(=O)Nc2cc(C(F)(F)F)ccc2F)cc1)c1ccnc(Nc2ccc(S(N)(=O)=O)cc2)n1 [GW809893] , thanks. 35

What do we get for COc1cc(Nc2nccc(N3CCC(NC(=O)c4cc5ccccc5s4)C3)n2)cc(OC)c1OC (stereo not drawn) [GSK1379760] ? 12

----------
Answer each item with its documented %Inh.
Tested on: CAMK4
stated_conditions: concentration: 1 μM, replicates: in singlicate; n = 1
Report only the number, with the unit % understood.

Write down the reported %Inh of Nc1ncc(-c2ccc3nccc(-c4ccncc4)c3c2)cc1S(=O)(=O)N1CCOCC1 , test system: CAMK4. 0

What do you have for Cc1cccc(NC(=O)Nc2ccc(Oc3ncnc4ccn(C)c34)cc2)c1 ? 0

What about FC(F)(F)c1ccc(/C=C/c2cncnc2Nc2ccc3[nH]c(Cc4ccccc4)nc3c2)cc1 ? 0

Request: COc1cccc(C(=O)Nc2cccc(Oc3ccc4nc(NC(=O)C5CC5)cn4n3)c2)c1 8

Same again, this time with Nc1n[nH]c2cnc(-c3ccccc3)cc12 0

What do you have for CCn1c(-c2nonc2N)nc2c(C#CC(C)(C)O)nc(OC[C@H](N)c3ccccc3)cc21 ? 0

Same lookup for COc1ccc(Nc2nccc(N3CCC(NC(=O)Nc4cccc(OC)c4)C3)n2)cc1 (stereo not drawn) , please. 4

Repeat for the following compound: CN1CCN(Cc2cccc(-c3ccc4c(Nc5ccc(Oc6ccccc6)cc5)ccnc4c3)c2)CC1 0

Could you do the same for Clc1ccc(-c2nn3ncccc3c2-c2ccnc(Nc3ccc4c(c3)OCCO4)n2)cc1 , please? 3

Same lookup for Cc1ccc(S(=O)(=O)Nc2ccc(Nc3nccc(Nc4cccc5[nH]ncc45)n3)cc2)cc1 , please. 0

Further, for CC(=O)Nc1nc2cnc(Nc3cc(NC(=O)c4cccc(C5(C#N)CC5)c4Cl)ccc3C)nc2s1 ? 0

Similarly, O=C(Nc1cccc(Oc2ccc3nc(NC(=O)C4CC4)cn3n2)c1)c1ccccc1C(F)(F)F ? 0

Same thing, different compound: COc1cc2c(cc1OCCN1CCNCC1)ncc1c3ccc(C#N)cc3[nH]c21 0

Again, but for Cn1cc(-c2[nH]c3cc(NC(=O)[C@H](N)C4CCCCC4)cc4c3c2C=NNC4=O)cn1 0

Then what about the compound COc1ccc(Nc2nccc(NCCNC(=O)c3cc4ccccc4s3)n2)cc1 ? 0

What about CN(c1ccc(NC(=O)Nc2cc(C(F)(F)F)ccc2F)cc1)c1ccnc(Nc2ccc(S(N)(=O)=O)cc2)n1 ? 0

O=C(O)C(F)(F)F.O=C(O)C(F)(F)F.O=c1[nH]ccc2nc(N[C@@H]3CCCNC3)nc(Nc3ccc(S(=O)(=O)N4CCOCC4)cc3)c12 , same question. 95.6

And then O=C(Nc1cccc(-c2nn3ccccc3c2-c2ccnc(Nc3cccc(C(F)(F)F)c3)n2)c1)c1c(F)cccc1F , what is it? 0

What about this compound? CSc1cccc2c(-c3ccncn3)c(-c3ccc(F)cc3)nn12 0

Another compound to look at: c1ccc(Oc2ccc(Nc3ccnc4cc(-c5ccc(CNCCN6CCOCC6)o5)ccc34)cc2)nc1 0

// next record Cn1cc(-c2ccc3c(c2)CCN3C(=O)Cc2cccc(Cl)c2)c2c(N)ncnc21 0

O=C(Nc1ccccc1F)NC1CCN(c2ccnc(Nc3ccc(F)cc3)n2)CC1 ? 0

Now this one: CN(C)S(=O)(=O)c1cc(-c2ccc3nccc(-c4cccc(S(N)(=O)=O)c4)c3c2)cnc1N 0

// next record O=C(NC1CCN(c2ccnc(Nc3ccc(F)cc3)n2)C1)c1cc2ccccc2s1 (stereo not drawn) 13
